Measured values drawn from patent US11814444B2 for this set.

Target: human PCSK9 / human LDLR EGFa domain interaction (Homo sapiens, UniProt Q8NBP7)
Sequence (Q8NBP7 153-692): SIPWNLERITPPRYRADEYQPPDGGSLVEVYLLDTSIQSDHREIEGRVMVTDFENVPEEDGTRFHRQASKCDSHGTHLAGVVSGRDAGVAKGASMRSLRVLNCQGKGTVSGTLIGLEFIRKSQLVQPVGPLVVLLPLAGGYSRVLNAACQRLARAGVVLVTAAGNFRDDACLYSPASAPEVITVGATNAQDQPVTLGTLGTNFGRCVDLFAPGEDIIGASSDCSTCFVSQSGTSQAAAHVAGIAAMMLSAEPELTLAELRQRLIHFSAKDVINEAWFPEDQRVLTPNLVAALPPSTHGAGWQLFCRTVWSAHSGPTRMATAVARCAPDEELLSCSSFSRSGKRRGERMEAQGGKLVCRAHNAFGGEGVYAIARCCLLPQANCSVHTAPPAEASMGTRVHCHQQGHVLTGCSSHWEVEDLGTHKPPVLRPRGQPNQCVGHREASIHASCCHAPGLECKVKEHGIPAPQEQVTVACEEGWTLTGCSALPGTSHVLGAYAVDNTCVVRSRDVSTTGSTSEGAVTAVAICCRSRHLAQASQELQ
Sequence (Q8NBP7 31-152 partner limits assumed): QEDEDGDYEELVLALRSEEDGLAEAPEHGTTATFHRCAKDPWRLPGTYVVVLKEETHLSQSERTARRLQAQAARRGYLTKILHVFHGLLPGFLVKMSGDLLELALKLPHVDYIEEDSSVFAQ
Assay: TR-FRET assay of inhibition of the PCSK9-LDLR protein-protein interaction
Settings: 20 nM avitag-biotinylated human PCSK9, 20 nM his-tagged human LDLR EGFa domain, 2 hours, room temperature
Experimental: A time-resolved fluorescence resonance energy (TR-FRET) assay was used to measure inhibition of the PCSK9-LDLR protein-protein interaction. […] Compounds were tested in dose-response and concentrations giving half-maximal inhibition calculated using a 4-parameter fit equation.
pIC50: −log10 of the molar value. Numbered stars: 1 amine (or outer) side, 2 acyl side, 3 side chain; on linkers, the order of the positions; unused ones are H or OH. Bridge positions count the residues as written; N and C are the ends. Square brackets hold non-standard residues; d marks the D form. Peptide text beside a SMILES is read from it. Trp(7-aza) = N[C@@H](Cc1c[nH]c2ncccc12)C(=O)O; Gly(piperidin-4-yl) = N[C@H](C(=O)O)C1CCNCC1; dBip = N[C@H](Cc1ccc(-c2ccccc2)cc1)C(=O)O; Ala(2-furyl) = N[C@@H](Cc1ccco1)C(=O)O; Phe(4-F) = N[C@@H](Cc1ccc(F)cc1)C(=O)O; Ac4c(3,3-F2) = NC1(C(=O)O)CC(F)(F)C1; mXylylene = c1cc(C[*:1])cc(C[*:2])c1; Hyp = O=C(O)[C@@H]1C[C@@H](O)CN1; Tle = CC(C)(C)[C@H](N)C(=O)O; αMeV = CC(C)[C@](C)(N)C(=O)O; Ac5c = NC1(C(=O)O)CCCC1; Nva = CCC[C@H](N)C(=O)O; Ac4c = NC1(C(=O)O)CCC1; X4 = C(CC[*:2])C[*:1]; Mpa = O=C(O)CCS
Please go through the items and note down their pIC50.

### Prompt Please supply the value of reported pIC50 for the item CCC[C@@H]1NC(=O)[C@H](Cc2ccc(O)cc2)NC(=O)[C@H](CCC(=O)O)NC(=O)[C@H](Cc2ccc(F)cc2)NC(=O)[C@H](Cc2c[nH]c3ncccc23)NC(=O)[C@H]([C@@H](C)O)NC(=O)[C@H](Cc2c[nH]cn2)NC(=O)[C@H](Cc2ccc(O)cc2)NC(=O)[C@H](C(C)(C)C)NC(=O)CCSCc2cccc(c2)CSC[C@@H](C(N)=O)NC(=O)[C@H]([C@@H](C)O)NC1=O [Compound 265] ([Mpa][Tle]YHT[Trp(7-aza)][Phe(4-F)]EY[Nva]TC-NH2; linker 1-12 via mXylylene)
### Response 6.00 to 7.00

### Prompt Please supply the value of reported pIC50 for the item CCC[C@@H]1NC(=O)[C@H](Cc2c[nH]c3ncccc23)NC(=O)[C@H]([C@@H](C)OC)NC(=O)[C@H](Cc2c[nH]cn2)NC(=O)[C@H](Cc2ccc(O)cc2)NC(=O)[C@H](C(C)(C)C)NC(=O)CCSCc2cccc(c2)CSC[C@@H](C(N)=O)NC(=O)[C@H]([C@@H](C)O)NC(=O)[C@H](CCC)NC(=O)[C@H](Cc2ccc(O)cc2)NC(=O)[C@H](CCC(=O)O)NC1=O [Compound 333] ([Mpa][Tle]YHT(Me)[Trp(7-aza)][Nva]EY[Nva]TC-NH2; linker 1-12 via mXylylene)
### Response 4.68 to 6.00

### Prompt Please supply the value of reported pIC50 for the item CCC[C@@H]1NC(=O)[C@H](Cc2ccc(O)cc2)NC(=O)[C@H](CCC(=O)O)NC(=O)C2(CCCC2)NC(=O)[C@H](Cc2c[nH]c3ncccc23)NC(=O)[C@H]([C@@H](C)O)NC(=O)[C@H](Cc2c[nH]cn2)NC(=O)[C@H](Cc2ccc(O)cc2)NC(=O)[C@H](C(C)(C)C)NC(=O)CCSCc2cccc(c2)CSC[C@@H](C(N)=O)NC(=O)[C@H]([C@@H](C)O)NC1=O [Compound 299] ([Mpa][Tle]YHT[Trp(7-aza)][Ac5c]EY[Nva]TC-NH2; linker 1-12 via mXylylene)
### Response 6.00 to 7.00

### Prompt Please supply the value of reported pIC50 for the item CCC[C@@H]1NC(=O)[C@H](Cc2c[nH]c3ncccc23)NC(=O)[C@H]([C@@H](C)O)NC(=O)[C@H](Cc2c[nH]cn2)NC(=O)[C@H](Cc2ccc(O)cc2)NC(=O)[C@H](C(C)(C)C)NC(=O)CCSCc2cccc(c2)CSC[C@@H](C(N)=O)NC(=O)[C@H]([C@@H](C)O)NC(=O)[C@H](CCC)NC(=O)[C@@H](Cc2ccc(-c3ccccc3)cc2)NC(=O)[C@H](CCC(=O)O)NC1=O [Compound 325] ([Mpa][Tle]YHT[Trp(7-aza)][Nva]E[dBip][Nva]TC-NH2; linker 1-12 via mXylylene)
### Response 6.00 to 7.00

### Prompt Please supply the value of reported pIC50 for the item CCC[C@@H]1NC(=O)[C@H](Cc2c[nH]c3ncccc23)NC(=O)[C@H]([C@@H](C)O)NC(=O)[C@H](Cc2ccco2)NC(=O)[C@H](Cc2ccc(O)cc2)NC(=O)[C@H](C(C)(C)C)NC(=O)CCSCc2cccc(c2)CSC[C@@H](C(N)=O)NC(=O)[C@H]([C@@H](C)O)NC(=O)[C@H](CCC)NC(=O)[C@H](Cc2ccc(O)cc2)NC(=O)[C@H](CCC(=O)O)NC1=O [Compound 117] ([Mpa][Tle]Y[Ala(2-furyl)]T[Trp(7-aza)][Nva]EY[Nva]TC-NH2; linker 1-12 via mXylylene)
### Response 4.68 to 6.00

### Prompt Please supply the value of reported pIC50 for the item CC(=O)N[C@H]1CSCc2cccc(c2)CSC[C@H](C(N)=O)NC(=O)[C@H]([C@@H](C)O)NC(=O)[C@](C)(C(C)C)NC(=O)[C@H](Cc2ccc(O)cc2)NC(=O)[C@H](C)NC(=O)C2(CCC2)NC(=O)[C@H](Cc2c[nH]c3ncccc23)NC(=O)[C@H]([C@@H](C)O)NC(=O)[C@@H]2C[C@@H]3CN2C(=O)[C@H](Cc2ccc(O)cc2)NC(=O)[C@H](NC1=O)[C@H](C)OCCCCO3 [Compound 343] (Ac-C[dT]Y[Hyp]T[Trp(7-aza)][Ac4c]AY[αMeV]T[dC]-NH2; linker 1-12 via mXylylene; linker 2-4 via X4)
### Response 4.30 to 4.68

### Prompt Please supply the value of reported pIC50 for the item CCC[C@@H]1NC(=O)[C@H](Cc2c[nH]c3ncccc23)NC(=O)[C@H]([C@@H](C)O)NC(=O)[C@H](Cc2c[nH]cn2)NC(=O)[C@H](Cc2ccc(O)cc2)NC(=O)[C@H](C(C)(C)C)NC(=O)CCSCc2cccc(c2)CSC[C@@H](C(N)=O)NC(=O)[C@H]([C@@H](C)O)NC(=O)[C@H](C2CCNCC2)NC(=O)[C@H](Cc2ccc(O)cc2)NC(=O)[C@H](CCC(=O)O)NC1=O [Compound 331] ([Mpa][Tle]YHT[Trp(7-aza)][Nva]EY[Gly(piperidin-4-yl)]TC-NH2; linker 1-12 via mXylylene)
### Response 4.68 to 6.00

### Prompt Please supply the value of reported pIC50 for the item CC(=O)N[C@H]1CSCc2cccc(c2)CSC[C@H](C(N)=O)NC(=O)[C@H]([C@@H](C)O)NC(=O)[C@](C)(C(C)C)NC(=O)[C@H](Cc2ccc(O)cc2)NC(=O)[C@H](C)NC(=O)C2(CC(F)(F)C2)NC(=O)[C@H](Cc2c[nH]c3ncccc23)NC(=O)[C@H]([C@@H](C)O)NC(=O)[C@@H]2CCCN2C(=O)[C@H](Cc2ccc(O)cc2)NC(=O)[C@H](C(C)(C)C)NC1=O [Compound 195] (Ac-C[Tle]YPT[Trp(7-aza)][Ac4c(3,3-F2)]AY[αMeV]T[dC]-NH2; linker 1-12 via mXylylene)
### Response 4.68 to 6.00

---

Please go through the items and note down their IC50.
Molecular target: human PCSK9 / human LDLR EGFa domain interaction (Homo sapiens)
Assay: TR-FRET assay of inhibition of the PCSK9-LDLR protein-protein interaction
Settings: 20 nM avitag-biotinylated human PCSK9, 20 nM his-tagged human LDLR EGFa domain, 2 hours, room temperature
Numbered stars: 1 amine (or outer) side, 2 acyl side, 3 side chain; on linkers, the order of the positions; unused ones are H or OH. Bridge positions count the residues as written; N and C are the ends. Square brackets hold non-standard residues; d marks the D form. Peptide text beside a SMILES is read from it. Trp(7-aza) = N[C@@H](Cc1c[nH]c2ncccc12)C(=O)O; X1 = C[C@@](N[*:1])(C(=O)[*:2])c1ccccc1; mXylylene = c1cc(C[*:1])cc(C[*:2])c1; NMeE = CN[C@@H](CCC(=O)O)C(=O)O; Tle = CC(C)(C)[C@H](N)C(=O)O; αMeV = CC(C)[C@](C)(N)C(=O)O; Nva = CCC[C@H](N)C(=O)O; Mpa = O=C(O)CCS

### Prompt Please supply the value of reported IC50 for the item CCC[C@@H]1NC(=O)[C@H](Cc2ccc(O)cc2)NC(=O)[C@H](CCC(=O)O)N(C)C(=O)[C@H](CCC)NC(=O)[C@H](Cc2c[nH]c3ncccc23)NC(=O)[C@H]([C@@H](C)O)NC(=O)[C@H](Cc2c[nH]cn2)NC(=O)[C@H](Cc2ccc(O)cc2)NC(=O)[C@H](C(C)(C)C)NC(=O)CCSCc2cccc(c2)CSC[C@@H](C(N)=O)NC(=O)[C@H]([C@@H](C)O)NC1=O [Compound 208] ([Mpa][Tle]YHT[Trp(7-aza)][Nva][NMeE]Y[Nva]TC-NH2; linker 1-12 via mXylylene)
### Response 50 to 100 µM

### Prompt Please supply the value of reported IC50 for the item CC(=O)N[C@H]1CSCc2cccc(c2)CSC[C@H](C(N)=O)NC(=O)[C@H]([C@@H](C)O)NC(=O)[C@](C)(C(C)C)NC(=O)[C@H](Cc2ccc(O)cc2)NC(=O)[C@H](C)NC(=O)[C@](C)(c2ccccc2)NC(=O)[C@H](Cc2c[nH]c3ncccc23)NC(=O)[C@H]([C@@H](C)O)NC(=O)[C@@H]2CCCN2C(=O)[C@H](Cc2ccc(O)cc2)NC(=O)[C@H](C(C)(C)C)NC1=O [Compound 190] (Ac-C[Tle]YPT[Trp(7-aza)][X1]AY[αMeV]T[dC]-NH2; linker 1-12 via mXylylene)
### Response 21 to 50 µM
